Each recorded value in this set is attributed to ChEMBL document CHEMBL1125478.

assaySystem: Substance-P receptor (Homo sapiens)
Sequence (P25103 whole entry): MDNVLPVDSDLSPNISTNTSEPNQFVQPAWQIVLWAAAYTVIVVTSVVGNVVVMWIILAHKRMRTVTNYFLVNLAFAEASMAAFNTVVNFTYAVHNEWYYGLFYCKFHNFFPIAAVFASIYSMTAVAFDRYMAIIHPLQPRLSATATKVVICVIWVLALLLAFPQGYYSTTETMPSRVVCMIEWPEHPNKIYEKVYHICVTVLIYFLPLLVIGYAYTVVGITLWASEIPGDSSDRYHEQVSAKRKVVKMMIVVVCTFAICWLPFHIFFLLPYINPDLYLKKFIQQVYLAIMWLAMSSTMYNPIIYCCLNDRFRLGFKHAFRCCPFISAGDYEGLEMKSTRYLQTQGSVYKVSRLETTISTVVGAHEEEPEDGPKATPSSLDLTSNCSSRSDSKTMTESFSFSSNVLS
procedureText: Binding affinity towards Tachykinin receptor 1 in human IM-9 cells using [3H]-substance P as ligand
metric: pIC50
Numbers only, as −log10 of the molar value.

[
  {
    "structureString": "COc1ccccc1CN[C@H]1C2CCN(CC2)[C@H]1Cc1ccccc1",
    "assaySystem": "Substance-P receptor (Homo sapiens)",
    "pIC50": 6.31
  },
  {
    "structureString": "CCc1ccccc1CN[C@H]1C2CCN(CC2)[C@H]1C(c1ccccc1)c1ccccc1",
    "assaySystem": "Substance-P receptor (Homo sapiens)",
    "pIC50": 7.78
  }
]

Query: Entry under review: c1ccc(CN[C@H]2C3CCN(CC3)[C@H]2C(c2ccccc2)c2ccccc2)cc1 . Reported pIC50?
Response: 7.80

---

Organism: Cavia porcellus
procedureText: Ability to block SP-induced excitation of neurons in the locus coeruleus in guinea pig brain
Format: functional
metric: IC50
Just the number plus its unit, please.

Query: Entry under review: COc1ccccc1CN[C@H]1C2CCN(CC2)[C@H]1C(c1ccccc1)c1ccccc1 . Reported IC50?
Response: 90 nM

---

assaySystem: Neuromedin-K receptor (Cavia porcellus)
Sequence (P30098 whole entry): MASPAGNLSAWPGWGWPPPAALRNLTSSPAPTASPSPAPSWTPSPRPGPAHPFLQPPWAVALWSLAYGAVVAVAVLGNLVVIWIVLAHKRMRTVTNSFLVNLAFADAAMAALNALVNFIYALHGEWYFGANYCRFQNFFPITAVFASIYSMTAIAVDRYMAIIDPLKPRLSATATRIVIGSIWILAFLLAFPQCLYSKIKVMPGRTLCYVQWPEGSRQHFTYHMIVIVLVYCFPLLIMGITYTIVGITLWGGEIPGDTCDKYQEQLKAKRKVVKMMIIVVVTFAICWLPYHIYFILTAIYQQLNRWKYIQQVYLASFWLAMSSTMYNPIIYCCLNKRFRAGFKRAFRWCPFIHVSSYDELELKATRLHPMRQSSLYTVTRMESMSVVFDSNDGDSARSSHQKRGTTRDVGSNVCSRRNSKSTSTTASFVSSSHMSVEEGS
procedureText: Inhibitory activity against Tachykinin receptor 3 in guinea pig cortex [125I]-BH-eledoisin as radioligand
pIC50: −log10 of the molar value.
metric: pIC50

Query: Entry under review: COc1ccccc1CN[C@H]1C2CCN(CC2)[C@H]1C(c1ccccc1)c1ccccc1 . Reported pIC50?
Response: < 5.00

---

Tested on: Cavia porcellus
procedureText: Inhibition of capsaicin-induced plasma extravasation in guinea pig ureter after intraperitoneal injection
Type: functional
conditionDescription: ip
metric: ED50 (mg/kg)
Numbers only, in mg/kg.

Known ED50 results, listed for orientation:
[
  {
    "structureString": "COc1ccccc1CN[C@H]1C2CCN(CC2)[C@H]1C(c1ccccc1)c1ccccc1",
    "assaySystem": "Cavia porcellus",
    "reportedValue": 2.3
  },
  {
    "structureString": "CCc1ccccc1CN[C@H]1C2CCN(CC2)[C@H]1C(c1ccccc1)c1ccccc1",
    "assaySystem": "Cavia porcellus",
    "reportedValue": 4
  },
  {
    "structureString": "Clc1ccccc1CN[C@H]1C2CCN(CC2)[C@H]1C(c1ccccc1)c1ccccc1",
    "assaySystem": "Cavia porcellus",
    "reportedValue": 7
  }
]

API: the following record is the query input.
Query: Entry under review: COc1ccccc1CN[C@@H]1C2CCN(CC2)[C@@H]1C(c1ccccc1)c1ccccc1 . Reported ED50?
Response: 6

---

assaySystem: Substance-K receptor (Mesocricetus auratus, UniProt P51144)
Sequence (P51144 whole entry): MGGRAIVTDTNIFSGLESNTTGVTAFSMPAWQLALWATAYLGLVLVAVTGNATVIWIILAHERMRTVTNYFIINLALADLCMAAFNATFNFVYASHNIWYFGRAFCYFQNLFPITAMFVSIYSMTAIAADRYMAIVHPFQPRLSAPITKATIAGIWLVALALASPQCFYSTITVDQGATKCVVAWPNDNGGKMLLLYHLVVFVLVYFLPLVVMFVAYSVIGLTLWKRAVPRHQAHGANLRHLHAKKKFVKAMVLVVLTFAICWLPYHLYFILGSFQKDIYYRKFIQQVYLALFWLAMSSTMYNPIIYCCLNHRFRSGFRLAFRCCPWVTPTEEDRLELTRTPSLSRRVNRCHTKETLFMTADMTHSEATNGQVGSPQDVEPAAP
procedureText: Inhibitory activity against [125I]neurokinin binding to Tachykinin receptor 2 in hamster urinary bladder
metric: IC50

Query: Entry under review: COc1ccccc1CN[C@H]1C2CCN(CC2)[C@H]1C(c1ccccc1)c1ccccc1 . Reported IC50?
Response: > 10 µM

---

I'd be grateful if you could share measured inhibition in vivo at 50 mg/kg for these entries.
Test system: Rattus norvegicus
procedureText: Inhibition of SP-induced salvation after intraperitoneal administration of the durg at a concentration of 50 mg/kg in rats
Type: functional
conditionDescription: ip

Known inhibition in vivo at 50 mg/kg results, listed for orientation:
[
  {
    "structureString": "Clc1ccc(CN[C@H]2C3CCN(CC3)[C@H]2C(c2ccccc2)c2ccccc2)cc1",
    "metric": "inhibition in vivo at 50 mg/kg",
    "reportedValue": "< 27%"
  },
  {
    "structureString": "Clc1cccc(CN[C@H]2C3CCN(CC3)[C@H]2C(c2ccccc2)c2ccccc2)c1",
    "metric": "inhibition in vivo at 50 mg/kg",
    "reportedValue": "< 52.8%"
  },
  {
    "structureString": "c1ccc(CN[C@H]2C3CCN(CC3)[C@H]2C(c2ccccc2)c2ccccc2)cc1",
    "metric": "inhibition in vivo at 50 mg/kg",
    "reportedValue": "0%"
  },
  {
    "structureString": "COc1ccccc1CN[C@H]1C2CCN(CC2)[C@H]1C(c1ccccc1)c1ccccc1",
    "metric": "inhibition in vivo at 50 mg/kg",
    "reportedValue": "< 76.2%"
  },
  {
    "structureString": "COc1ccccc1CN[C@H]1C2CCN(CC2)[C@@H]1C(c1ccccc1)c1ccccc1",
    "metric": "inhibition in vivo at 50 mg/kg",
    "reportedValue": "11.3%"
  }
]

For every item below, please supply its inhibition in vivo at 50 mg/kg.
1. COc1ccccc1CN[C@H]1C2CCN(CC2)[C@H]1Cc1ccccc1
2. Clc1ccccc1CN[C@H]1C2CCN(CC2)[C@H]1C(c1ccccc1)c1ccccc1
3. CCc1ccccc1CN[C@H]1C2CCN(CC2)[C@H]1C(c1ccccc1)c1ccccc1
4. COc1ccccc1CN[C@@H]1C2CCN(CC2)[C@@H]1C(c1ccccc1)c1ccccc1

Response:
["0%", "< 43.9%", "16.7%", "< 66.9%"]
